# protocol.notes: Pharmacokinetic test in male SD rats, tail vein injection
# Assay type: in vivo, rat
# details: rat, plasma, iv, 15 mg/kg tail vein injection
endpoint.name: half-life (h)
Lab book: enter the figure in h, no units written.

>>> observed_result("CN(C)C1(C(=O)N2CCN(C(=O)c3cc(Oc4n[nH]c(=O)c5ccccc45)ccc3F)CC2)CC1")
3.08

Continue with the next compound.
input: For the compound O=C(c1cc(Cc2n[nH]c(=O)c3ccccc23)ccc1F)N1CCN(C(=O)C2CC2)CC1 , what half-life is on record?
output: 0.682

###

# protocol.notes: Pharmacokinetic test in male SD rats, tail vein injection
# Type: in vivo, rat
# details: rat, plasma, iv, 15 mg/kg tail vein injection
endpoint.name: clearance (mL/min/kg)
Please respond with the number in mL/min/kg and leave the unit unwritten.

>>> observed_result("CN(C)C1(C(=O)N2CCN(C(=O)c3cc(Oc4n[nH]c(=O)c5ccccc45)ccc3F)CC2)CC1")
28

Alright, here's another molecule for you.
input: Look up clearance: O=C(c1cc(Cc2n[nH]c(=O)c3ccccc23)ccc1F)N1CCN(C(=O)C2CC2)CC1
output: 39.1
